Values were extracted from ChEMBL document CHEMBL1777802.

System: Poly(dA-dT)oligonucleotide
Measured ΔTm by item
measured-attribute: ΔTm (°C)

1. Cl.Cl.N=C(N)c1ccc(C#Cc2cc3ccc(C(=N)N)cc3[nH]2)cc1; 19
2. N=C(N)c1ccc(C#Cc2cc3ccc(C(=N)N)cc3[nH]2)nc1; 12.2
3. N=C(N)c1ccc2cc(-c3ccc(-c4ccccc4)cc3)[nH]c2c1; 16
4. Cl.Cl.N=C(N)c1ccc2cc(C#Cc3ccc(C(=N)N)c(F)c3)[nH]c2c1; 16
5. N=C(N)c1ccc2cc(C#Cc3ccc(C(=N)N)nc3)[nH]c2c1; 19.1
6. Cl.Cl.N=C(N)c1ccc(-c2ccc(-c3cc4cc(C(=N)N)ccc4[nH]3)cc2)cc1; 20.9
